Listed molecules paired with reported pIC50
System: Rat fibroblasts (CREF)
PROTOCOL_NOTES: Peg3 promoter luciferase inhibitors, potency, dose response, cell-based, HeLa, CREF/GAPDH counter-screen panel (AID 624167)
CONDITION_LABEL: CREF/GAPDH counter-screens, run 2, dose range 1, individual replicate IC50 per panel
Answer as the number alone; pIC50 is minus log10 of concentration in mol/L.

# MOLECULE, EXPERIMENTAL_SYSTEM, pIC50
records = [
    ("O=C(CSC1c2ccccc2-c2ccccc21)N/N=C/c1ccccc1O", "Rat fibroblasts (CREF)", 4.41),
    ("COc1ccc(/C=C2\\SC(=S)N(CCCC(=O)NNC(=O)c3ccccc3O)C2=O)cc1", "Rat fibroblasts (CREF)", 4.36),
    ("Cc1ccc2nc(-c3ccccc3)cn2c1", "Rat fibroblasts (CREF)", 6.02),
    ("O=C(CCl)N1c2ccccc2Sc2ccc3ccccc3c21", "Rat fibroblasts (CREF)", 4.55),
    ("Cc1ccc(C(=O)Nc2nc3ccccc3[nH]2)cc1", "Rat fibroblasts (CREF)", 6.28),
    ("CCCC(=O)NC(c1ccc(N(C)C)cc1)c1ccc2cccnc2c1O (stereo unspecified)", "Rat fibroblasts (CREF)", 4.35),
]

For the molecule Cc1cc(/C=N/Nc2ncnc(N)c2[N+](=O)[O-])c(C)n1-c1ccccc1 , what pIC50 is on record? 5.69

Thanks! And CCC(c1ccc(O)c(O)c1)C(CC)c1ccc(O)c(O)c1 (stereo unspecified) ? 4.78

Item: CCN(CCCl)c1cc(CN(C)C)cc(NC(=O)c2ccc(C(=O)Nc3cc(CN(C)C)cc(N(CC)CCCl)c3)cc2)c1 6.10
